species: Homo sapiens; assay: Inhibition of mRNA splicing of human SMN2 exon 7 transfected in HEK293H cells assessed as compound concentration required to increase full-length SMN2 mRNA level by 1.5 times after 24 hrs by RT-qPCR analysis relative to GAPDH; type: cell-based
Recorded EC1.5, one value per entry.
Your reply should be a number followed by the unit it is expressed in.

The cases that follow already have their EC1.5 on record.
# sample-smiles, outcome-measure, result
data = [
    ("O=c1oc2cc(N3CCNCC3)ccc2cc1-c1cn2ccccc2n1", "EC1.5", "0.38 µM"),
    ("COc1ccc(-c2cc3ccc(N4CCNCC4)cc3oc2=O)cc1OC", "EC1.5", "0.62 µM"),
    ("COc1ccc(-c2cc(=O)n3cc(N4CCNCC4)ccc3c2)cc1OC", "EC1.5", "0.92 µM"),
    ("Cc1cn2cc(-c3cc4ccc(N5CCNCC5)cc4oc3=O)ccc2n1", "EC1.5", "0.005 µM"),
    ("O=c1oc2cc(N3CCNCC3)ccc2cc1-c1nc2ccccc2o1", "EC1.5", "8.7 µM"),
]

Challenge: Which measured EC1.5 value corresponds to CN(C)c1ccc2cc(-c3nc4ccccc4o3)c(=O)oc2c1 ?
Response given: 22 µM

====

assay: Ratio of drug level in brain to plasma of FVB.Cg-Tg(SMN2 delta 7 exon)4299Ahmb Tg(SMN2)89Ahmb Smn1tm1Msd/J mouse at 10 mg/kg, ip; type: ADME, organism-based; conditions: brain and plasma, read-out: BPR
outcome-measure: Kp

The cases that follow already have their Kp on record.
# sample-smiles, result
measured = [
    ("CCN1CCN(c2ccc3cc(-c4cn5cc(C)nc(C)c5n4)c(=O)oc3c2)C[C@@H]1C", 18),
    ("Cc1cn2cc(-c3cc4ccc(N5CCN(C)CC5)cc4c(=O)o3)nc2c(C)n1", 17),
]

Lab note: next molecule to report on.
Challenge: Which measured Kp value corresponds to Cc1cn2nc(-c3cc(=O)n4cc(N5CCN(C)CC5)ccc4n3)cc2c(C)n1 ?
Response given: 2.9

====

Recorded Papp, one value per entry.
assay: Apparent permeability in human Caco2 cells; type: ADME, cell-based; conditions: Caco-2
State just the number; it will be interpreted in ×10⁻⁶ cm/s.

The cases that follow already have their Papp on record.
# sample-smiles, units-text, Papp
measured = [
    ("Cc1cn2cc(-c3cc4ccc(N5CCNCC5)cc4c(=O)o3)nc2c(C)n1", "×10⁻⁶ cm/s", 4.4),
    ("CCN1CCN(c2ccc3cc(-c4cn5cc(C)nc(C)c5n4)c(=O)oc3c2)C[C@@H]1C", "×10⁻⁶ cm/s", 1.2),
    ("Cc1cn2cc(-c3cc4ccc(N5CCN(C)CC5)cc4c(=O)o3)nc2c(C)n1", "×10⁻⁶ cm/s", 1.2),
    ("Cc1cn2cc(-c3cc4ccc(N5CCN(C)CC5)cc4oc3=O)nc2c(C)n1", "×10⁻⁶ cm/s", 1.4),
    ("Cc1cn2cc(-c3cc4ccc(N5CCN(C)CC5)cc4oc3=O)nc2cn1", "×10⁻⁶ cm/s", 2.7),
    ("Cc1cn2nc(-c3cc(=O)n4cc(N5CCNCC5)ccc4n3)cc2c(C)n1", "×10⁻⁶ cm/s", 14),
]

Lab note: next compound to report on.
Challenge: Which measured Papp value corresponds to Cc1cn2nc(-c3cc(=O)n4cc(N5CCN(C)CC5)ccc4n3)cc2c(C)n1 ?
Response given: 7.5
